Please go through the items and note down their melting point.

{"columns": ["compound", "assay_value"],
 "data": [
  ["Cc1cc(COc2nn(Cc3ccccc3)cc2C(=O)O)ccc1OCc1nc(-c2ccco2)oc1C [Example 61]", "176 to 177 °C"]
]}

Would you mind listing melting point for each of the following compounds?
1. COc1cc(COc2nn(-c3ccccc3)cc2/C=C/c2nnc(C)[nH]2)ccc1OCc1nc(-c2ccco2)oc1C [Example 188]
2. COC(=O)c1cccc(-c2nc(COc3ccc(COc4nn(-c5ccccc5)cc4/C=C/c4nc(N5CCOCC5)sc4C)cc3OC)c(C)o2)c1 [Example 309]
3. CCOC(=O)c1cn(-c2ccccc2)nc1OCc1ccc(OCc2nc(-c3ccco3)oc2C)c(OC)c1 [Example 72]

// result
1. 165 to 166 °C
2. 183 to 184 °C
3. 150 to 151 °C

Taken from patent US7368578B2.
